Here the recorded IC50 is given for each entry.
# TESTED SYSTEM: hA2a (Homo sapiens (Human), UniProt P29274)
# Sequence (P29274 whole entry): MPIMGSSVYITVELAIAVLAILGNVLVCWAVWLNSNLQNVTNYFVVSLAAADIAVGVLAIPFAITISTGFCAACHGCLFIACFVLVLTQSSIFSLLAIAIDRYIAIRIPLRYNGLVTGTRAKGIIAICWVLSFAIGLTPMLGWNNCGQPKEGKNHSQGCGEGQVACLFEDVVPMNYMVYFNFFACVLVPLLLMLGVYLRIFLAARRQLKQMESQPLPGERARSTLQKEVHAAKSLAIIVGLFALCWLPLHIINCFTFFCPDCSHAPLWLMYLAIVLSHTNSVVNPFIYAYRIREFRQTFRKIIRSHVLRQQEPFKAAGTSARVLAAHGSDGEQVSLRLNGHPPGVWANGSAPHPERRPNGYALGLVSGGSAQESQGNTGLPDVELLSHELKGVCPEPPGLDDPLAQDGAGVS
# ASSAY PROTOCOL: cAMP inhibition assay in hA2a/CHO cells
# Format: cell-based
# CONDITION SET: adenosine stimulation, read-out: cAMP & FLIPR IC50 (nM) hA2a
METRIC NAME: IC50 (nM)

In [3]: df
Out[3]:
                                    compound  metric_name  measurement_unit  result
 0  Cc1cc(-c2c(-c3ccc(F)cc3)nc(N)n3nc(Cc4cccc(Cl)c4)nc23)ccn1         IC50                nM      59
 1  Nc1cc(-c2c(-c3ccc(F)cc3)nc(N)n3nc(Cc4ncccc4F)nc23)ccn1         IC50                nM      41
 2  Cn1cc(-c2c(-n3cccn3)nc(N)n3nc(Cc4ncccc4F)nc23)ccc1=O         IC50                nM     122
 3  Cc1cc(-c2c(-c3ccc(F)cc3)nc(N)n3nc(Cc4ncccc4F)nc23)cc(C)n1         IC50                nM     6.9
 4  COCCc1nc2c(-c3ccc4ncc(C)n4c3)c(-c3ncco3)nc(N)n2n1         IC50                nM     1.1
 5  COCCc1nc2c(-c3ccc4ncc(C)n4c3)c(-c3ccc(F)cc3)nc(N)n2n1         IC50                nM     0.2
 6  Nc1nc(-c2ccc(F)cc2)c(-c2ccnc(Cl)c2)c2nc(Cc3ncccc3F)nn12         IC50                nM      56
 7  Cc1cnc2ccc(-c3c(N(C)C)nc(N)n4nc(Cc5ncccc5F)nc34)cn12         IC50                nM     1.2
 8  Cc1cc(-c2c(-c3ccc(F)cc3)nc(N)n3nc(Cc4cccc(N(C)C)n4)nc23)ccn1         IC50                nM      43
 9  Cn1cc(-c2c(-c3ncco3)nc(N)n3nc(Cc4ncccc4OC(F)F)nc23)ccc1=O         IC50                nM      11
10  Cn1cc(-c2nc(N)n3nc(Cc4ncccc4F)nc3c2-c2ccc(=O)n(C)c2)cn1         IC50                nM      98
11  Nc1nc(-c2ccc(F)cc2)c(-c2ccnnc2)c2nc(Cc3c(F)cccc3F)nn12         IC50                nM      63
12  Cn1cc(-c2c(-c3ccccc3Cl)nc(N)n3nc(Cc4ncccc4F)nc23)ccc1=O         IC50                nM     135
13  Cc1cnc2ccc(-c3c(N4CCOC(C)C4)nc(N)n4nc(Cc5ncccc5F)nc34)cn12 (single isomer, unassigned; isomer 1) [Example 112-1]         IC50                nM    91.6
14  Cc1coc(-c2nc(N)n3nc(Cc4c(F)cccc4F)nc3c2-c2ccc(=O)n(C)c2)n1         IC50                nM     139
15  Nc1nc(-c2ccc(F)cc2)c(-c2ccc3nccn3c2)c2nc(Cc3ncccc3F)nn12         IC50                nM     0.9
16  Cc1cnc2ccc(-c3c(-c4ncco4)nc(N)n4nc(CC5CCCO5)nc34)cn12 (single isomer, unassigned) [Example 106-2]         IC50                nM     0.2
17  COC1CN(c2nc(N)n3nc(Cc4c(F)cccc4F)nc3c2-c2ccc3ncc(C)n3c2)C1         IC50                nM     3.5
18  Cn1cc(-c2c(-c3ccccn3)nc(N)n3nc(Cc4c(F)cccc4F)nc23)ccc1=O         IC50                nM       8
19  Nc1nc(-c2ccc(F)cc2)c(-c2ccc(=O)n(CCO)c2)c2nc(Cc3ncccc3F)nn12         IC50                nM     3.7
20  COc1cccc(-c2nc(N)n3nc(Cc4ncccc4F)nc3c2-c2ccc(=O)n(C)c2)c1         IC50                nM     6.7
21  Cn1cc(-c2c(-c3ccc(F)cc3)nc(N)n3nc(Cc4cccc(N)n4)nc23)ccc1=O         IC50                nM      27
22  Cc1cnc2ccc(-c3c(-c4ncco4)nc(N)n4nc(CC5CCOC5)nc34)cn12 (single isomer, unassigned) [Example 107-1]         IC50                nM     0.5
23  Cn1cc(-c2c(-c3cccc(Cl)c3)nc(N)n3nc(Cc4ncccc4F)nc23)ccc1=O         IC50                nM     5.5
24  Cc1cnc2ccc(-c3c(N4CCC4)nc(N)n4nc(Cc5c(F)cccc5F)nc34)cn12         IC50                nM     0.1
25  Nc1nc(-c2ccc(F)cc2)c(-c2ccc3ncccc3c2)c2nc(Cc3ncccc3F)nn12         IC50                nM     0.4
26  Cn1cc(-c2c(-c3ccc(F)cc3)nc(N)n3nc(Cc4ncc(F)cc4F)nc23)ccc1=O         IC50                nM      22
27  Cc1cc(-c2c(-c3ncco3)nc(N)n3nc(Cc4ncccc4F)nc23)cc(OC(F)F)n1         IC50                nM      27
28  Nc1nc(-c2ccc(F)cc2)c(-c2ccnc(C(F)(F)F)c2)c2nc(Cc3c(F)cccc3F)nn12         IC50                nM      52
29  Cn1cc(-c2c(-c3ccc(F)c(F)c3)nc(N)n3nc(Cc4ncccc4F)nc23)ccc1=O         IC50                nM      18
30  Cn1cc(-c2c(-c3nccs3)nc(N)n3nc(Cc4c(F)cccc4F)nc23)ccc1=O         IC50                nM     4.3
